Cited source: the Human Domainome abundance scans (Beltran et al. 2025)

Items are presented alongside their recorded abundance fitness.
B1: Far upstream element-binding protein 1, residues 98 to 169; numbered along this chain, Q96AE4 (parent)
chain: RSVMTEEYKVPDGMVGFIIGRGGEQISRIQQESGCKIQIAPDSGGLPERSCMLTGTPESVQSAKRLLDQIVE

variants of: B1; assay: abundance fitness (aPCA) (normalised: wild type 0, dead -1); higher = more abundant; growth selection in yeast, the domain comes from the species named; details: Homo sapiens
Measured quantity: abundance fitness

1) L66C | 0
2) G16P | 0.033
3) K9N | -0.156
4) M52R | -0.017
5) L46C | -0.026
6) R65S | -0.034
7) R28T | -0.068
8) K36G | -0.058
9) G44T | 0.002
10) D12P | -0.009
11) F17L | -0.008
12) G23V | -0.157
13) Y8M | -0.104
14) R65L | -0.024
15) R28I | -0.215
16) I37K | -0.911
17) A40L | -0.05
18) S50M | -0.018
19) P41T | -0.016
20) R1E | -0.194
21) L53N | -1.05
22) G44I | -0.064
23) S2H | -0.15
24) R28F | -0.168
25) V15N | -0.213
26) D68H | -0.045
27) L53Q | -1.1
28) V60P | -0.871
29) Y8I | -0.035
30) G13V | -0.218
31) G20Y | -0.279
32) Q69S | -0.018
33) E72F | -0.111
34) S62F | -0.071
35) E32C | -0.096
36) G23E | -0.011
37) V15W | -0.084
38) K64N | -0.274
39) P41S | -0.023
40) I39F | 0.038
41) I37M | -0.081
42) P11S | -0.112
43) L46D | -0.006
44) F17A | 0.045
45) G55N | -1.1
46) G55H | -0.721
